// data source = patent US7868026B2

- test_target: CYP3A4 (Homo sapiens, UniProt P08684)
- Sequence (P08684 whole entry): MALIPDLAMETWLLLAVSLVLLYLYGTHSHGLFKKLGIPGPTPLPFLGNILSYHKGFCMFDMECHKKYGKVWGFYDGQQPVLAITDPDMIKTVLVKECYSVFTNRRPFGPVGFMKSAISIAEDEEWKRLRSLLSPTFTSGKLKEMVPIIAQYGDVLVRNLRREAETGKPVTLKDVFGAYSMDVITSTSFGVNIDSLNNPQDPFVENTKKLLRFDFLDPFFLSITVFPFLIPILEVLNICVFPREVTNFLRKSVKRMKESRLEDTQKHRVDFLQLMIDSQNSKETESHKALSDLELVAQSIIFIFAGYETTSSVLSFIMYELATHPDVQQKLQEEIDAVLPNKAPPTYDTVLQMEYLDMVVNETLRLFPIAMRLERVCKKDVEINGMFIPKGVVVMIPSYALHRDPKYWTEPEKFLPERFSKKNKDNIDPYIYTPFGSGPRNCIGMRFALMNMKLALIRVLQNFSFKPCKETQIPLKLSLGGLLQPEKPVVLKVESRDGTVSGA
- test: Determination of IC50 against CYP3A4 by measurement of inhibition of testosterone metabolism (human liver microsomes, 6-β-OH-testosterone by LC-MS/MS)
- Format: biochemical
- Design: 0.1 mg/mL human liver microsomes
- experimental_conditions: read-out: IC50 (Testo.)
In this section we review reported pIC50 values for a set of compounds.
# pIC50: negative log10 of molar concentration; output just the value

compound="COc1cncc(NS(=O)(=O)c2ccccc2C(=O)NCc2ccc(F)c(Cl)c2)c1 [Example 262]" reported=8.12
compound="COc1cccc(CCNC(=O)c2ccccc2S(=O)(=O)Nc2cccnc2)c1 [Example 60]" reported=7.62

Enquiry: # lookup: pIC50 of Cc1cncc(NS(=O)(=O)c2ccccc2C(=O)NCCc2ccccc2Cl)c1 [Example 226]
Return: 8.10

Enquiry: # lookup: pIC50 of COc1ccc(CNC(=O)c2ccccc2S(=O)(=O)N(C)c2cccnc2)cc1 [Example 336]
Return: 7.72

Enquiry: # lookup: pIC50 of COc1cncc(NS(=O)(=O)c2ccccc2C(=O)NCCc2ccccc2F)c1 [Example 258]
Return: 7.96

Enquiry: # lookup: pIC50 of COc1cncc(NS(=O)(=O)c2ccccc2C(=O)NC(C)C2CC2)c1 (centres unmarked) [Example 311]
Return: 7.14

Enquiry: # lookup: pIC50 of COc1ccncc1NS(=O)(=O)c1ccccc1C(=O)N(C)Cc1ccc(F)c(F)c1 [Example 256]
Return: 7.80

Enquiry: # lookup: pIC50 of COc1ccncc1NS(=O)(=O)c1ccccc1C(=O)NCc1ccc(F)c(C(F)(F)F)c1 [Example 255]
Return: 8.05
